Here, each record is paired with measured Efficacy data.
# Tested on: wild-type ZIKV (Ugandan MR766 strain) in Vero cells
# Protocol Details: ZIKV cytopathic effect (CPE) inhibition qHTS assay, CellTiter-Glo readout
# Format: cell-based, Zika virus
Just the number, please, no unit attached.

Study these solved cases before continuing.
Compound: CC(=O)O[C@@H]1[C@@H](O)[C@H]2O[C@@H]3C=C(C)[C@@H](O)C[C@]3(CO)[C@]1(C)[C@]21CO1
Efficacy: -41.676
//
Compound: C/C(=N\NC(=N)N)c1cc(NC(=O)CCCCCCCCC(=O)Nc2cc(/C(C)=N/NC(=N)N)cc(/C(C)=N/NC(=N)N)c2)cc(/C(C)=N/NC(=N)N)c1
Efficacy: -56.895
//
Compound: Cc1cc(OCCC[S+](C)(=O)[O-])cc(C)c1-c1cccc(COc2ccc3c(c2)OCC3CC(=O)O)c1 (stereo not drawn)
Efficacy: -41.849
//
Compound: CC(=O)OC[C@]12C[C@H](O)C(C)=C[C@H]1O[C@@H]1[C@H](O)[C@@H](O)[C@@]2(C)[C@]12CO2
Efficacy: -57.268

Query (compound): CO[C@H]1[C@H](O)[C@H](O[C@H]2CC[C@]3(C)C4CC[C@]5(C)[C@H](C6=CC(=O)OC6)CC[C@]5(O)C4CC[C@@H]3C2)O[C@@H](C)[C@@H]1O (stereo partly drawn) ; field requested: Efficacy
-18.714

Would you mind doing O=C(CCN1CCN(C(=O)OCc2cc(Cl)cc(Cl)c2)CC1)c1ccc2[nH]c(=O)oc2c1 as well?
-25.5

Let us now turn to C=C1CCC2[C@](C)(CCC[C@]2(C)C(=O)O)[C@H]1CC/C(C)=C/C(=O)OC (stereo partly drawn)
-63.179

Entry Cn1cc(-c2ccncc2)c(-c2ccc(OCc3ccc4ccccc4n3)cc2)n1 please
-23.654

Next: Cc1cc(N2CCN(C(=O)Oc3ccc(-c4ccccc4)cn3)CC2)c2ccccc2n1
-62.282
